Values compiled from ChEMBL document CHEMBL3988442.

Could you please report measured Percent Effect for the items listed next?
target: Sialic acid-binding Ig-like lectin 9 (Homo sapiens)
assay comment: Hs-Siglec9 ALPHAscreen SOP 20170721
Set-up: scale not given: direction of the effect not stated beside the values
assay conditions: 10 µM
Numbers only, in %.

Reference set (3 entries):
// sample CCCn1ccc(C(=O)N2CCOC(c3nc(-c4cccs4)no3)C2)n1 (centres undefined) , its Percent Effect was 6.13

// sample O=C(Nc1ccc(N2CCCC2)nc1)N1CCc2ccccc2C1 , its Percent Effect was 2.55

// sample Cn1ccnc1COc1ccc(CN2CCN(CCO)CC2)cc1 , its Percent Effect was -0.317

Batch of 7 compounds: report Percent Effect for each.
1. OCC1CCCCN1c1ccc(-c2nc(-c3ccccc3F)no2)cn1 (centres undefined)
2. CCN(CC)C(=O)c1nnc2ccc(N3CCOCC3)cc2n1
3. Cc1nc(CN2CCCN(CCOc3cccc(C#N)c3)CC2)no1
4. CCn1cc(CN2CCCN(C(=O)C3=NN(C)C(=O)CC3)CC2)cn1
5. CC(C)NC(=O)[C@H]1C[C@@H]2[C@@H](C1)OCCN2Cc1cnn(C)c1
6. CCCn1ccc2ccc(NC(=O)N(C)CCOC)cc21
7. Cn1ccnc1CN1CCCN(C(=O)c2ccc(Cl)o2)CC1

[7.51, 3.43, -2.13, -13.6, 2.29, 4.31, 4.15]

Batch of 7 compounds: report Percent Effect for each.
1. NC(=O)c1cc(C2CCCN(CCCOc3ccccc3)C2)n[nH]1 (centres undefined)
2. CNc1ccc(CC2CCCN(C(=O)c3cnc(C)nc3)C2)nn1 (centres undefined)
3. CN1CCCC1c1cccc(Cc2ccccc2F)n1 (centres undefined)
4. CCCn1nc2c(cc1=O)CN(CC(=O)Nc1nnc(C)s1)CC2
5. CC(C)C(=O)NCC(=O)N(C)C1CCCN(CCc2ccccc2)C1 (centres undefined)
6. CNS(=O)(=O)c1cc(C(=O)NC2CCOc3ccccc32)cc(C)c1C (centres undefined)
7. CCn1cc(CN2CCc3nc(N4CCOCC4)nc(O)c3CC2)cn1

[18.7, -9.66, 1.77, 10.3, 15.5, -3.37, 18.1]

Batch of 2 compounds: report Percent Effect for each.
1. O=C(CCC1CCN(Cc2ncc[nH]2)CC1)Nc1ccccc1Cl
2. CO[C@H]1CCN(C(=O)Cc2ccccn2)[C@H]1Cc1ccncc1

[-2.45, -1.93]
